Origin of values: the supplement of paper PMC11061612

Test system: H4 (Low Grade Glioma)
Test: combination Emax (second highest fraction inhibited in the dose matrix, 72 h); higher = more inhibition; extreme values may be limits of the assay
quantity.name: combination Emax
Numbers only.

molecule	quantity.name	value
CS(=O)(=O)CCNCc1ccc(-c2ccc3ncnc(Nc4ccc(OCc5cccc(F)c5)c(Cl)c4)c3c2)o1 [Lapatinib] + C[C@@H](Oc1cc(-c2cnn(C3CCNCC3)c2)cnc1N)c1c(Cl)ccc(F)c1Cl [Crizotinib] (first compound max 10 µM, 7x7, partner max 10 µM)	combination Emax	0.944

Quick one: give me combination Emax for each item below, same order please.
1. Cc1c2c(nn1C)CSCc1cc(n(C)n1)CSc1cc(c3ccccc3c1)OCCCc1c(C(=O)O)n(C)c3c-2c(Cl)ccc13 [AZD5991] + Cc1cc2ncnn2cc1Nc1ncc2c(n1)n(C1CCOCC1)c(=O)n2C [AZD7648] (first compound max 1 µM, 7x7, partner max 10 µM)
2. Cc1nc(Nc2ncc(C(=O)Nc3c(C)cccc3Cl)s2)cc(N2CCN(CCO)CC2)n1 [Dasatinib] + CC(=O)Nc1cccc(-n2c(=O)n(C3CC3)c(=O)c3c(Nc4ccc(I)cc4F)n(C)c(=O)c(C)c32)c1 [Trametinib] (first compound max 2 µM, 7x7, partner max 1 µM)
3. O=C(c1cc(Cc2n[nH]c(=O)c3ccccc23)ccc1F)N1CCN(C(=O)C2CC2)CC1 [Olaparib] + COc1nnc2ccc(N3CCC(c4ccc(OCCN5CCN(C)C(=O)[C@H]5C)cc4)CC3)nn12 [AZD5153] (first compound max 10 µM, 7x7, partner max 1 µM)
4. CC1(C)CCC(CN2CCN(c3ccc(C(=O)NS(=O)(=O)c4ccc(NCC5CCOCC5)c([N+](=O)[O-])c4)c(Oc4cnc5[nH]ccc5c4)c3)CC2)=C(c2ccc(Cl)cc2)C1 [Venetoclax] + COc1cc(Nc2ncc3c(n2)-c2ccc(Cl)cc2C(c2c(F)cccc2OC)=NC3)ccc1C(=O)O [Alisertib] (first compound max 1 µM, 7x7, partner max 10 µM)
5. CN(C)CCCOc1ccc(-c2ccc3ncc4c(c3c2)n(C2CCOCC2)c(=O)n4C)cn1 [AZD0156] + O=C(c1cc(Cc2n[nH]c(=O)c3ccccc23)ccc1F)N1CCN(C(=O)C2CC2)CC1 [Olaparib] (first compound max 3 µM, partner max 3 µM)
6. Cc1c2c(nn1C)CSCc1cc(n(C)n1)CSc1cc(c3ccccc3c1)OCCCc1c(C(=O)O)n(C)c3c-2c(Cl)ccc13 [AZD5991] + C[C@@H]1COCCN1C2=NC(=NC(=C2)C3(CC3)[S@](=N)(=O)C)C4=C5C=CNC5=NC=C4 [AZD6738] (first compound max 1 µM, 7x7, partner max 10 µM)

OUTPUT:
[0.378, 0.393, 0.658, 0.814, 0.536, 0.813]
